# System: 922993-354-T-J3-PDC complex spheroids, viability, % test/control;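 note: spheroids exposed to the agents for 7 days before readout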
# ASSAY_INFO: Anticancer human tumor 922993-354-T-J3-PDC patient-derived endometrial carcinoma cell line growth inhibition [CLK]
# APPLIED_CONDITIONS: curve of compound
# Excerpt: A high-throughput screen of multi-cell type tumor spheroids was designed to identify active combinations of […] and targeted small molecules. Complex spheroids include a stromal component modeled by human endothelial cells (HUVEC) and fibroblasts modeled by human mesenchymal stem cells (MSCs). […] Compounds. […] If the clinical Cmax for an agent had not been determined, the highest concentration tested was 10 microM. […]
A collection of molecules and their measured IC50

A selection of reference data follows.
Qu. Recorded IC50 of `CCCS(=O)(=O)Nc1ccc(F)c(C(=O)c2c[nH]c3ncc(-c4ccc(Cl)cc4)cc23)c1F` , please.
Ans. > 10 µM

Qu. Try this molecule next: `Nc1ccccc1NC(=O)c1ccc(CNC(=O)OCc2cccnc2)cc1`
Ans. > 10 µM

Qu. Check `Cn1ncnc1[C@H]1c2n[nH]c(=O)c3cc(F)cc(c23)N[C@@H]1c1ccc(F)cc1` too.
Ans. > 0.1 µM

Qu. Entry CC(CO)NC(=O)c1cc(-c2ccc(Cl)cc2)nn(-c2cnn(C)c2)c1=O (configuration not stated) please
Ans. > 10 µM

Qu. Then what about the molecule C=CC(=O)N1CCN(c2nc(=O)n(-c3c(C)ccnc3C(C)C)c3nc(-c4c(O)cccc4F)c(F)cc23)C(C)C1 (configuration not stated) ?
Ans. > 10 µM

Qu. Cool, now `CCN1CCN(Cc2ccc(Nc3ncc(F)c(-c4cc(F)c5nc(C)n(C(C)C)c5c4)n3)nc2)CC1`
Ans. > 1 µM

Next:
Qu. Query: IC50; subject: `COc1ccc([C@@H](O)c2cc(-c3ncnc4cc(N5CCOCC5)ccc34)c(F)cc2Cl)nn1`
Ans. > 10 µM

Qu. Quick one: `O=C(c1cc(Cc2n[nH]c(=O)c3ccccc23)ccc1F)N1CCN(C(=O)C2CC2)CC1`
Ans. > 10 µM

Qu. // next record CC1COCCN1c1cc(C2(S(C)(=N)=O)CC2)nc(-c2ccnc3[nH]ccc23)n1 (configuration not stated)
Ans. > 10 µM

Qu. Likewise for `C=CC(=O)Nc1cc(Nc2nccc(-c3cn(C)c4ccccc34)n2)c(OC)cc1N(C)CCN(C)C` ?
Ans. > 0.3 µM

Qu. Next molecule: Nc1ccn(C2OC(CO)C(O)C2(F)F)c(=O)n1 (configuration not stated)
Ans. < 0.0316 µM

Qu. Same lookup for C#Cc1c(F)ccc2cc(O)cc(-c3ncc4c(N5CC6CCC(C5)N6)nc(OCC56CCCN5CC(F)C6)nc4c3F)c12 (configuration not stated) , please.
Ans. > 10 µM

Cited source: PubChem BioAssay AID2060606
